Molecular target: human CD33 V106A (human, UniProt P20138 18-364)
Sequence (P20138 18-364 V106A limits assumed): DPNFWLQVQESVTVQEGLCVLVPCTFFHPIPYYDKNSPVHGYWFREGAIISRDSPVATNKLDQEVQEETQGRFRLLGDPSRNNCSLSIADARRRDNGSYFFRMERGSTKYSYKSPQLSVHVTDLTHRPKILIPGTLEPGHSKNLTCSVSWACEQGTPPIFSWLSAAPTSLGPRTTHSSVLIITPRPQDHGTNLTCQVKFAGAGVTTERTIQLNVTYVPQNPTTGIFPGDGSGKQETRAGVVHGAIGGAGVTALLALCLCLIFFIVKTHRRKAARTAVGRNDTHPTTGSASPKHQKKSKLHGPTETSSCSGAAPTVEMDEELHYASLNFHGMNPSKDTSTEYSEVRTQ
Assay: flow cytometry on HEK293-T, alanine scan
Record form. Attribute: Mean % WT Binding. Fill in for each entry.
Answers are plain numbers, in % WT binding.

Some binders with recorded Mean % WT Binding:
INSERT INTO results (binder, reading_unit, measurement) VALUES
  ('Refmab #4 (antibody, V domains shown, The alanine scan used IgG or Fab) VH: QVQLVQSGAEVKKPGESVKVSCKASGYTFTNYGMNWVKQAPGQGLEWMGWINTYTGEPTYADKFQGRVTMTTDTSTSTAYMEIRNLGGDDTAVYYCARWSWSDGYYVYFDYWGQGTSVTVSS VL: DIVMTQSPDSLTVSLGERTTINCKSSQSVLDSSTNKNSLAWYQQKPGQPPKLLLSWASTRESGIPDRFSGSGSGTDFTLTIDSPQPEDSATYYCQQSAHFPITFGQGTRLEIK', '% WT binding', 110),
  ('Refmab #3 (antibody, V domains shown, The alanine scan used IgG or Fab) VH: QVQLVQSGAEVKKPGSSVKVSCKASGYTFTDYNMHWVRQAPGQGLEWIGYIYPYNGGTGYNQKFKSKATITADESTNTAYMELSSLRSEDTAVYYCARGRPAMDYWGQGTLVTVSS VL: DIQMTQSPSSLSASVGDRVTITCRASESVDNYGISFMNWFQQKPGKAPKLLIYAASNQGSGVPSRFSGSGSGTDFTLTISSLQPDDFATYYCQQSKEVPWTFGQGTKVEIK', '% WT binding', 85.7),
  ('Refmab #1 (antibody, V domains shown, The alanine scan used IgG or Fab; also called hP67.6) VH: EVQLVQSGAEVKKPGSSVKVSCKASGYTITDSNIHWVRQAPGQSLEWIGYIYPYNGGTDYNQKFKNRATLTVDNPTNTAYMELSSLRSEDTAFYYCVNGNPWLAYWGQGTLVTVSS VL: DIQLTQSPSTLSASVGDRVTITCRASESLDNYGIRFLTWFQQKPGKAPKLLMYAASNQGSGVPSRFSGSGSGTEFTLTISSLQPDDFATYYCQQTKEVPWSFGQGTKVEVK', '% WT binding', 88.5);

Then this binder:
Q: Need Mean % WT Binding, item Refmab #2 (antibody, V domains shown, The alanine scan used IgG or Fab) VH: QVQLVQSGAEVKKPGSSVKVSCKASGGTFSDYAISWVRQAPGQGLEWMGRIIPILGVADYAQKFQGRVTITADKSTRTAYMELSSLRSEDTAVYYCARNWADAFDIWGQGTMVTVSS VL: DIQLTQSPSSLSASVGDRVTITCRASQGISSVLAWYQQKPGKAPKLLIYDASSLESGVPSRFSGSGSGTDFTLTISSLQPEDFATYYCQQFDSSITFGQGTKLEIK
Ans: 112

Sourced from patent US20260242735A1
